# Organism: Homo sapiens
# ASSAY_PROCEDURE: Selectivity for plasma kallikrein over trypsin
# Assay type: cell-free
ASSAY_ENDPOINT: Selectivity ratio
Give the figure only, with no unit attached.

Field: example entries. Status: answers known.
| MOLECULE | Selectivity ratio |
| --- | --- |
| N#Cc1cccc(-c2cc(C(CC(=O)O)C(=O)O)cc(-c3nc4cc(C(=N)N)ccc4[nH]3)c2O)c1 (stereo not drawn) | 530 |
| Cc1cccc(-c2cc(C(CC(=O)O)C(=O)O)cc(-c3nc4cc(C(=N)N)ccc4[nH]3)c2O)c1 (stereo not drawn) | 1080 |
| N=C(N)c1ccc2[nH]c(-c3cc(C(CC(=O)O)C(=O)O)cc(-c4ccc(Cl)cc4)c3O)nc2c1 (stereo not drawn) | 25 |
| N=C(N)c1ccc2[nH]c(-c3cc(C(CC(=O)O)C(=O)O)cc(-c4ccccc4)c3O)nc2c1 (stereo not drawn) | 830 |
| N=C(N)c1ccc2[nH]c(-c3cc(C(CC(=O)O)C(=O)O)cc(-c4cccc(C(N)=O)c4)c3O)nc2c1 (stereo not drawn) | 23600 |
| COc1cccc(-c2cc(C(CC(=O)O)C(=O)O)cc(-c3nc4cc(C(=N)N)ccc4[nH]3)c2O)c1 (stereo not drawn) | 1430 |
| Cc1ccc(-c2cc(C(CC(=O)O)C(=O)O)cc(-c3nc4cc(C(=N)N)ccc4[nH]3)c2O)cc1 (stereo not drawn) | 200 |

Now for the molecule whose Selectivity ratio we want.
Look up and report measured Selectivity ratio for this entry: Cc1ccccc1-c1cc(C(CC(=O)O)C(=O)O)cc(-c2nc3cc(C(=N)N)ccc3[nH]2)c1O (stereo not drawn)
140

###

# ASSAY_PROCEDURE: Beta half life in Sprague-Dawley rat at 1 mg/kg, iv
# Format: ADME, organism-based
# Set-up: dose 1 mg/kg, route intravenous
# REPORTED_CONDITIONS: in vivo
ASSAY_ENDPOINT: half-life (min)
# number only, unit min dropped from output

Look up and report measured half-life for this entry: N=C(N)c1ccc2[nH]c(-c3cc(C(CC(=O)O)C(=O)O)cc(-c4cccc(C(N)=O)c4)c3O)nc2c1 (stereo unspecified)
30

###

# ASSAY_PROCEDURE: Plasma clearance in Sprague-Dawley rat at 1 mg/kg, iv
# Type: ADME, organism-based
# Design: dose 1 mg/kg, route intravenous
ASSAY_ENDPOINT: clearance (mL/min/kg)
# number only, unit mL/min/kg dropped from output

Look up and report measured clearance for this entry: N=C(N)c1ccc2[nH]c(-c3cc(C(CC(=O)O)C(=O)O)cc(-c4cccc(C(N)=O)c4)c3O)nc2c1 (stereo unspecified)
0.54

###

# ASSAY_PROCEDURE: Mean residence time in Sprague-Dawley rat at 1 mg/kg, iv
# Format: ADME, organism-based
# Design: dose 1 mg/kg, route intravenous
# REPORTED_CONDITIONS: in vivo
ASSAY_ENDPOINT: MRT (h)
# number only, unit h dropped from output

Look up and report measured MRT for this entry: N=C(N)c1ccc2[nH]c(-c3cc(C(CC(=O)O)C(=O)O)cc(-c4cccc(C(N)=O)c4)c3O)nc2c1 (stereo unspecified)
9.85

###

# Species on record: Homo sapiens
# ASSAY_PROCEDURE: Selectivity for plasma kallikrein over trypsin
# Assay type: cell-free
Listed next: entries and their corresponding Selectivity ratio.
Give the figure only, with no unit attached.

| MOLECULE | NUMERIC_RESULT |
| --- | --- |
| CC(=O)c1cccc(-c2cc(C(CC(=O)O)C(=O)O)cc(-c3nc4cc(C(=N)N)ccc4[nH]3)c2O)c1 (centres undefined) | 1020 |

Look up and report measured Selectivity ratio for this entry: COc1ccc(-c2cc(C(CC(=O)O)C(=O)O)cc(-c3nc4cc(C(=N)N)ccc4[nH]3)c2O)cc1 (centres undefined)
75

Look up and report measured Selectivity ratio for this entry: N=C(N)c1ccc2[nH]c(-c3cc(C(CC(=O)O)C(=O)O)cc(-c4cccc(Cl)c4)c3O)nc2c1 (centres undefined)
1300

Look up and report measured Selectivity ratio for this entry: COc1ccccc1-c1cc(C(CC(=O)O)C(=O)O)cc(-c2nc3cc(C(=N)N)ccc3[nH]2)c1O (centres undefined)
2710

These entries and their values trace back to ChEMBL document CHEMBL1146109.
